# assayed_target: T1, human LILRB2 (human, UniProt Q8N423 22-597)
# T1 construct: whole, on cells; also called hLILRB2
# T1 sequence (Q8N423 22-597): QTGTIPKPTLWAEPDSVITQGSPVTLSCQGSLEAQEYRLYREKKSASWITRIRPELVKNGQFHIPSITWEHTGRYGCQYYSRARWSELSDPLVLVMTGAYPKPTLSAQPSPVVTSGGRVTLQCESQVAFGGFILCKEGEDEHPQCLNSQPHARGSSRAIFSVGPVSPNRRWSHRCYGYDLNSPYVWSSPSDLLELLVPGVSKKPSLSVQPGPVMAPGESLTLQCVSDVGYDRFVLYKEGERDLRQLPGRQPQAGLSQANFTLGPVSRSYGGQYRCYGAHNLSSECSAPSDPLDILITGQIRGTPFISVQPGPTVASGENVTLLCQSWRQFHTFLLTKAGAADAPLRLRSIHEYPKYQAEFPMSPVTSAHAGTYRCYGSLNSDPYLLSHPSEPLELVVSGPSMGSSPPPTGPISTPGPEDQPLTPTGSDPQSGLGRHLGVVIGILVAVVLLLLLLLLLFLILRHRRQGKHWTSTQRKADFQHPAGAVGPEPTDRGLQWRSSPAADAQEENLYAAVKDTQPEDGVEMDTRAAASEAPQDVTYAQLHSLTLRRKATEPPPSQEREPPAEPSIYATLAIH
# test_protocol: FACS, 293F-hLILRB2 cells
experimental_readout: MFI (MFI)
Your answer should be a plain number; it is taken to be in MFI.

Use the examples below as a reference point.
2-H1-D7-E5-D5 (antibody, V domains shown, mouse monoclonal hybridoma antibody) VH: EVHLVESGGGLVQPGGSRKLSCAASGFTFSSFGMHWVRQPPEKGLEWVAYISSGSSSIYYADTVKGRFTISRDNPKNTLFLQMTSLRSEDTAMYYCARGTGTGAMDYWGQGTSVTVSS VL: DIQMTQTTSSLSASLGDRVTISCRTSQDISNYLNWYQQKPDGTVKLLIYYTSKLHSGVPSRFSGSGSGTDYSLTISNLDQEDIATYFCQQGNTLPWTFGGGTKLEIK = 31.5
42-C8-A12-F3-D11 (antibody, V domains shown, mouse monoclonal hybridoma antibody) VH: EVHLVESGGDLVKPGGSLKLSCAASGFTFSSHGMSWVRQTPDKRLEWVATISSGGIYTYHPDSVKGRFSISRDNAKKTLYLQMSSLKSEDTGIYYCTRGQVGNWYFDVWGAGTTVTVSS VL: DIVITQSPAIMSASPGEKVTINCSASSSVSYMHWFQQTPGTSPKLWIYSTSNLASGVPARFSGSGSGTFYSLTISRMEAEDAATYYCQQRSSYPLTFGAGTKLELK = 34.5

Note: attention shifts to another entry.
Data point: 25-G9-G4-C12 (antibody, V domains shown, mouse monoclonal hybridoma antibody) VH: EVQLVESGGDLVKPGGSLKLSCAASGFTFSSHGMSWVRQTPDKRLEWVATINSGGYYTYYPDSVKGRFTISRDNAKNTLYLQMSSLKSEDTAMYYCARGQLGNWYFDVWGAGTTVTVSS VL: DIVMTQSPAIMSASPGEKVTITCSASSSVSYMHWFQQKPGTSPKLWIYSTSNLASGVPARFSGSGSGTSYSLTISRMEAEDAATYYCQQRSSYPLTFGAGTKLELK ; MFI = 32.8
